Tested on: TGF-β1-mediated αSMA expression
Experiment: Fibroblast to myofibroblast transformation (FMT) assay
Conditions: donor IPF03
Please respond with reported Max PIN (%) for every item in the list.
One number for each entry, in %.

Below: 4 compounds and their reported Max PIN (%).
>>> observed("Clc1cccc2c(Nc3ccnc(Nc4cccc(N5CCOCC5)c4)c3)cnnc12")
107
>>> observed("Cc1cccc2c(Nc3ccnc(Nc4ccc(N5CCOCC5)cc4)c3)cnnc12")
106
>>> observed("COC(=O)c1ccc2c(c1)NC(=O)/C2=C(\\Nc1ccc(N(C)C(=O)CN2CCN(C)CC2)cc1)c1ccccc1 [Nintedanib, nintedanib, reference compound]")
90
>>> observed("Cc1cccc(-c2[nH]c(CNc3ccccc3F)nc2-c2ccc3ncnn3c2)n1 [Vactosertib, vactosertib, reference compound]")
105

Now let's try a different one.
Determine its reported Max PIN (%): Cc1nn(CC(F)(F)F)cc1Nc1cc(Nc2cnnc3c(C)cccc23)ccn1 106

* * *

Please respond with reported IC50 for every item in the list.
Biological target: ALK5 (Homo sapiens, UniProt P36897)
Sequence (P36897 34-503): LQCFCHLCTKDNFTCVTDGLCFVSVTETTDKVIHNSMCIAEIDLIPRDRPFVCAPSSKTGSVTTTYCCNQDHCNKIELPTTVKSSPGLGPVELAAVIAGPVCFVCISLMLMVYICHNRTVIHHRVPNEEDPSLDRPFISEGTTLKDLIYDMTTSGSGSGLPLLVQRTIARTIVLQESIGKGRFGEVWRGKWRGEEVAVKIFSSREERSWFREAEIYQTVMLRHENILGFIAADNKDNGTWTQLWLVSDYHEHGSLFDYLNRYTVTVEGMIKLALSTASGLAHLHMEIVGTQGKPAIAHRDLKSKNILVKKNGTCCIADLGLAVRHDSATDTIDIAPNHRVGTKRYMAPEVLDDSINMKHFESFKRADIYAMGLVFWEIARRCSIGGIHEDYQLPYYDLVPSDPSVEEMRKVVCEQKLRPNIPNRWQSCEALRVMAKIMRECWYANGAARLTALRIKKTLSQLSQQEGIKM

Below: 2 compounds and their reported IC50.
>>> observed("Cc1cccc2c(Nc3ccnc(Nc4ccc(N5CCOCC5)cc4)c3)cnnc12 [Compound 05]")
"2 to 5 nM"
>>> observed("Cc1nn(CC(F)(F)F)cc1Nc1cc(Nc2cnnc3c(C)cccc23)ccn1 [Compound 01]")
"≤ 2 nM"

Consider the following items and state reported IC50 for each.
1. Clc1cccc2c(Nc3ccnc(Nc4cccc(N5CCOCC5)c4)c3)cnnc12 [Compound 04]
2. Cc1cccc2c(Nc3ccnc(Nc4ccc(C5CCOCC5)cc4)c3)cnnc12 [Compound 08]

1. 2 to 5 nM
2. 2 to 5 nM

* * *

Tested on: TGF-β1-mediated αSMA expression
Test: Fibroblast to myofibroblast transformation (FMT) assay
Settings: Homo sapiens, Fibroblast, read-out: pIC50 αSMA, donor IPF03 (converted)
Hi! Could you tag entries with IC50 below 60 nM as Met, and those at or above as Not met? Much appreciated.

Answered examples (4):
>>> answer_label("COC(=O)c1ccc2c(c1)NC(=O)/C2=C(\\Nc1ccc(N(C)C(=O)CN2CCN(C)CC2)cc1)c1ccccc1 [Nintedanib, nintedanib, reference compound]")
"Not met"
>>> answer_label("Cc1cccc2c(Nc3ccnc(Nc4ccc(N5CCOCC5)cc4)c3)cnnc12 [Compound 05]")
"Not met"
>>> answer_label("Cc1cccc(-c2[nH]c(CNc3ccccc3F)nc2-c2ccc3ncnn3c2)n1 [Vactosertib, vactosertib, reference compound]")
"Met"
>>> answer_label("Clc1cccc2c(Nc3ccnc(Nc4cccc(N5CCOCC5)c4)c3)cnnc12 [Compound 04]")
"Met"

Below 60 nM on IC50? Entry Cc1nn(CC(F)(F)F)cc1Nc1cc(Nc2cnnc3c(C)cccc23)ccn1 [Compound 01] Not met

* * *

System: phospho-SMAD2 (S465/S467)
Assay: Phospho-SMAD2 assay in RDSR cells
Type: cell-based
Conditions: Homo sapiens, 0.5 h, 100 ng/ml TGF-β1, 30 minutes
reported-property: IC50

Below: 2 compounds and their reported IC50.
>>> observed("Cc1nn(CC(F)(F)F)cc1Nc1cc(Nc2cnnc3c(C)cccc23)ccn1")
"< 200 nM"
>>> observed("Clc1cccc2c(Nc3ccnc(Nc4cccc(N5CCOCC5)c4)c3)cnnc12")
"< 200 nM"

Now let's try a different one.
Determine its reported IC50: Cc1cccc(-c2[nH]c(CNc3ccccc3F)nc2-c2ccc3ncnn3c2)n1 [Vactosertib, vactosertib, reference compound] < 200 nM
